Numbers sourced from PubChem BioAssay AID1159580.

# Method Description: chemical genetic growth profiling, strain panel (AID 1159580);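 also: tested at 20 µM; growth read once vehicle control cultures reached saturation at 30 °C; 1 = growth at the plate median or of vehicle wells; lower values mean less growth of the strain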
# Applied Conditions: S. cerevisiae deletion strains, growth OD, locus YIR030C, strain dcg1, hits give low values
About 2,000 (36%) of roughly 5,500 compounds were called active. Another 18% or so got no clear call; they are omitted. The list shows a part of the results.
Measured Metric: normalized growth
Give only the figure.

{"Compound": "O=C(O)c1cc(O)c2c(c1)C(=O)c1cc(O)cc(O)c1C2=O", "normalized growth": 0.939}
{"Compound": "C[C@]12[C@H](O)CC3C(CC[C@@H]4C[C@@H](O)CC[C@]34C)[C@@]1(O)CC[C@@H]2C1=CC(=O)OC1 (stereo partly specified)", "normalized growth": 0.986}
{"Compound": "Cc1cc(O)c2c(c1)C(=O)c1cccc(O)c1C2=O", "normalized growth": 1.01}
{"Compound": "O=C1c2cccc(O)c2C(=O)c2c(O)cccc21", "normalized growth": 0.896}
{"Compound": "O=C1C=CC(=O)c2c(O)cccc21", "normalized growth": 1}

Moving on to another compound below.
Ask: Give the measured normalized growth for "CC(C)[C@@H]1CC[C@@H](C)C[C@H]1OC(=O)c1ccccc1"
Reply: 0.996
